test system: M. avium subsp. paratuberculosis CIT03; assay: microbe, parasite or virus in culture; type: cell-based; conditions: Mycobacterium avium, 168 h; 7 days incubation, alamarBlue; MIC = IC90; read-out: MIC, MAP CIT03
assay_endpoint: MIC

Prompt: Quick one: MIC for COC(=O)Nc1ccc(C(O)CN2CCN(c3ccccc3F)CC2)cc1.Cl (centres unmarked) [8e] ?
Completion: > 610 µM

Prompt: Again, but for CCOC(=O)Nc1cccc(C(O)CN2CCN(c3ccccc3F)CC2)c1.Cl (centres unmarked) [8b]
Completion: > 590 µM

Prompt: Again, but for CCOC(=O)Nc1ccc(C(O)CN2CCN(c3ccccc3F)CC2)cc1.Cl (centres unmarked) [8f]
Completion: > 590 µM

Prompt: Again, but for CCCOC(=O)Nc1cccc(C(O)CN2CCN(c3ccccc3F)CC2)c1.Cl (centres unmarked) [8c]
Completion: > 571 µM

Prompt: Again, but for CCCCOC(=O)Nc1cccc(C(O)CN2CCN(c3ccccc3F)CC2)c1.Cl (centres unmarked) [8d]
Completion: > 53 µM

Prompt: Again, but for CCCOC(=O)Nc1ccc(C(O)CN2CCN(c3ccccc3F)CC2)cc1.Cl (centres unmarked) [8g]
Completion: > 571 µM

Prompt: Again, but for CCCCOC(=O)Nc1ccc(C(O)CN2CCN(c3ccccc3F)CC2)cc1.Cl (centres unmarked) [8h]
Completion: > 553 µM

Prompt: Again, but for COC(=O)Nc1cccc(C(O)CN2CCN(c3ccccc3F)CC2)c1.Cl (centres unmarked) [8a]
Completion: > 610 µM
